experimentalDetails: E. coli DRC41 culture turbidity changes, primary screen, E. coli filamentation inducer project, strain DRC41, OD650, 48 h (AID 1152);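 note: E. coli MC1000 strain DRC41 lacking acrAB efflux pump and sulA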
testParameters: E. coli DRC41 (acrAB sulA), higher = more signal, called active from +8 up or from −8 down
Would you mind labelling by z-score? At or over -2 is true, under is false.

Task: Is reported z-score greater than or equal to -2 here: `C=CC[C@@]1(C(=O)O)N=C(c2ccc(OCCCO)cc2)O[C@@H]1c1ccccc1CN=[N+]=[N-]`
Output: true

Task: Does the reported z-score for `CCOC(=O)C1=CC[C@@H](c2ccccc2)N(S(=O)(=O)C[Si](C)(C)C)[C@H]1c1ccccc1` fall at or above the -2 mark?
Output: false

Task: Reported z-score at or above -2? `COC(=O)c1ccc([C@H](NC(=O)c2ccccc2)[C@]2(C)C[C@H]2C2CCCCC2)cc1`
Output: false

Task: Please check the record `CCCCNC(=O)c1ccc(C#C[Si](C)(C)C)c(OC(C)=O)c1` and state if its z-score is at or above -2.
Output: true

Task: In plain terms: is recorded z-score at least -2 for `COC(=O)[C@@]1(Cc2ccc(F)cc2)[C@H]2c3cc(C(=O)N4CCCC4)n(CCO)c3C[C@H]2CN1C(=O)c1ccccc1` ?
Output: true

Task: Item `CCCCC(=C=CC[C@H](O)c1ccc(OCCO)cc1)C[C@H](O)c1ccccn1` with z-score of -2 or above?
Output: true

Task: Tell me whether z-score is at least -2 here: `COC(=O)[C@@]1(CCC(=O)OC(C)(C)C)N=C(c2ccc(OCCCO)cc2)O[C@H]1c1ccccc1CN=[N+]=[N-]`
Output: true

Task: Check this compound for z-score at or above -2: `Cc1ccc(S[C@]2(C(=O)NCCCN(C)C)CC(=O)N(Cc3ccccc3Cl)[C@@H]2c2ccc(CO)cc2I)cc1`
Output: true
